system: HAB1; assay: Yeast two hybrid of pBD-PYR1 site saturation mutants with pACT-HAB1 on 10 μM ABA, β-galactosidase staining; type: cell-based, Arabidopsis; design: key: x: Mutations in PYR1 that disrupt ABA-induced binding to PYR1 to HAB1; settings: S. cerevisiae Y190, 10 μM ABA; dead = lack of visible staining in comparison to wild type control
Metric: Mutations in PYR1 that disrupt ABA-induced binding to PYR1 to HAB1

{"Molecule": "L87E: PYR1 mutant (protein, UniProt O49686 1-191, looked up, variant L87E) Abscisic acid receptor PYR1: MPSELTPEERSELKNSIAEFHTYQLDPGSCSSLHAQRIHAPPELVWSIVRRFDKPQTYKHFIKSCSVEQNFEMRVGCTRDVIVISGEPANTSTERLDILDDERRVTGFSIIGGEHRLTNYKSVTTVHRFEKENRIWTVVLESYVVDMPEGNSEDDTRMFADTVVKLNLQKLATVAEAMARNSGDGSGSQVT", "Measured": "x"}
{"Molecule": "P148V: PYR1 mutant (protein, UniProt O49686 1-191, looked up, variant P148V) Abscisic acid receptor PYR1: MPSELTPEERSELKNSIAEFHTYQLDPGSCSSLHAQRIHAPPELVWSIVRRFDKPQTYKHFIKSCSVEQNFEMRVGCTRDVIVISGLPANTSTERLDILDDERRVTGFSIIGGEHRLTNYKSVTTVHRFEKENRIWTVVLESYVVDMVEGNSEDDTRMFADTVVKLNLQKLATVAEAMARNSGDGSGSQVT", "Measured": "x"}
{"Molecule": "F159G: PYR1 mutant (protein, UniProt O49686 1-191, looked up, variant F159G) Abscisic acid receptor PYR1: MPSELTPEERSELKNSIAEFHTYQLDPGSCSSLHAQRIHAPPELVWSIVRRFDKPQTYKHFIKSCSVEQNFEMRVGCTRDVIVISGLPANTSTERLDILDDERRVTGFSIIGGEHRLTNYKSVTTVHRFEKENRIWTVVLESYVVDMPEGNSEDDTRMGADTVVKLNLQKLATVAEAMARNSGDGSGSQVT", "Measured": "x"}
